- tested.system: T1, murine GPC3-his protein (Sino Biological, Cat. No. 50989-M08B) (murine, UniProt Q8CFZ4 25-558)
- T1 construct: Bought protein; also called murine GPC3 protein
- T1 sequence (Q8CFZ4 25-558 limits assumed): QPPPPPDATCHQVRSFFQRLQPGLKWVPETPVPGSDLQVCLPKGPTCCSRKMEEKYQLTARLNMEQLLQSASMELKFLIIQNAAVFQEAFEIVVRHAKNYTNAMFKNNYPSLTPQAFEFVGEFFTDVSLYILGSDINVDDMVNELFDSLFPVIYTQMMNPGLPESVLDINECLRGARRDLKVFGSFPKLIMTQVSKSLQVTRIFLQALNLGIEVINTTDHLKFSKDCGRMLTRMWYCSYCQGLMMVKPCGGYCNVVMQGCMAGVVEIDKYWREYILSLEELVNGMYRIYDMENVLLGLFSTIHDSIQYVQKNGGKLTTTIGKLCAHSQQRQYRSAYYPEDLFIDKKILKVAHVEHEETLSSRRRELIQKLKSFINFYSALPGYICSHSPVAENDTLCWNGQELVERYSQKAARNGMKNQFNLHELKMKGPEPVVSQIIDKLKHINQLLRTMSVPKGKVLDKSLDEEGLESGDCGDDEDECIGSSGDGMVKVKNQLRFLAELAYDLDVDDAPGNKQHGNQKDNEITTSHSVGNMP
- test.details: ELISA, coated murine GPC3-His;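 also: antigen coated on plates at 1 µg/mL, test antibody bound for 2 h at 37 °C, detected with HRP-conjugated secondary antibody and TMB substrate after acid stop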
Measured OD450 at 0.01 nM antibody by item
measured.metric: OD450 at 0.01 nM antibody (OD450 nm)

>>> reported("F3.81.19 human-murine chimeric antibody (antibody, human IgG1, kappa, V domains shown) VH: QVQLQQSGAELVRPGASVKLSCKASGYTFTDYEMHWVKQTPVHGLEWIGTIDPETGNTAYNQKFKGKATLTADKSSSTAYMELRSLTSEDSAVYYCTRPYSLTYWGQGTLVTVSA VL: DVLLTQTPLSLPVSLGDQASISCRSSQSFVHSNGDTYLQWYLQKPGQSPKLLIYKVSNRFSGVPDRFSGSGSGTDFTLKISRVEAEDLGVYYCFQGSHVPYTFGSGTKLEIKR")
0.04
>>> reported("F2.92.1 human-murine chimeric antibody (antibody, human IgG1, kappa, V domains shown) VH: QVQLQQSGAELVRPGASVKLSCKASGYIFSDYEIHWVKQTPVHGLECIGAVDPETGGTAYNQKFKGKATLTADKSSSTAYMELRSLTSEDSAVYFCTRFYSFAYWGQGTLVTVST VL: DVVMTQTPLSLPVSLGDQGSISCRSSQSLVHSNGNTYLQWYLQKPGQSPKLLIYKVSNRFSGVPDRFSGSGSGTDFTLKISRVEAEDLGVYFCCQSTHVLPTFGGGTKLEIKR")
0.05
>>> reported("F2.169.2 human-murine chimeric antibody (antibody, human IgG1, kappa, V domains shown) VH: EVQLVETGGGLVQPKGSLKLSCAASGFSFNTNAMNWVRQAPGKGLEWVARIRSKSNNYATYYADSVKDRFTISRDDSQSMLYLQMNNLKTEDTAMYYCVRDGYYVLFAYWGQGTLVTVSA VL: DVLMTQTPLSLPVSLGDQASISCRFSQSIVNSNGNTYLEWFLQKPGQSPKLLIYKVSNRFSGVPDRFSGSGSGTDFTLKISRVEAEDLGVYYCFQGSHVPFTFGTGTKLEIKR")
0.38
